Give solubility kinetic for every item shown.
conditions-used: buffer; pH 7.4; 200.0 µM

Reference set, count: 3
Cc1ccsc1C(=O)Nc1ccc(OCc2ccccc2)cc1    < 0.7 µg/mL
COCCN1CC(C(=O)NCc2ncccc2C)CCC1=O (centres undefined)    > 45.8 µg/mL
CC(CN1CCCC1)OC(=O)c1ccc(F)cc1.Cl (centres undefined)    > 43.2 µg/mL

Next:
Prompt: Fill in the blank: the reported solubility kinetic of Cc1cnc(C(=O)NCc2ccc(F)cc2)cn1 is ____.
Response: > 36.8 µg/mL

---

conditions-used: buffer; pH 7.4; 200.0 µM
measured-property: solubility kinetic

Cc1ccc2[nH]c(O)c(N=O)c2c1    > 26.4 µg/mL

Give one value of solubility kinetic per listed compound.
1. COc1cccc(OCC(=O)NCC2CCCO2)c1 (stereo unspecified)
2. Cc1cc(NC(=O)c2ccco2)c(=O)n(Cc2c(F)cccc2Cl)c1
3. COc1ccc(-n2c(C)c(C)c3c(NCCO)ncnc32)cc1
4. Cc1noc(NS(=O)(=O)c2ccc(NS(=O)(=O)c3ccc(Cl)cc3)cc2)c1C
5. NC(=O)C1CCN(C(=O)c2cc(Cl)c3c(c2)OCCO3)CC1
6. CN(C)CCNC(=O)Cn1c(=O)c2cccn2c2ccc(F)cc21

Response:
1. > 39.8 µg/mL
2. < 0.4 µg/mL
3. > 46.9 µg/mL
4. > 66.3 µg/mL
5. > 48.7 µg/mL
6. > 49.6 µg/mL

Look at each compound and report its solubility kinetic.
1. COC(=O)CNC(=O)COC(=O)c1ccc(Cl)nc1
2. Cc1cc(Br)ccc1NC(=O)CNC(=O)CSc1nccn1C
3. NS(=O)(=O)c1ccc(CCNC(=O)COC(=O)c2ccc([N+](=O)[O-])o2)cc1
4. COc1ccc(Nc2ncnc3ccc(C)cc23)cc1

Response:
> 43 µg/mL
> 59.6 µg/mL
> 59.6 µg/mL
> 39.8 µg/mL

---

Assign solubility kinetic to each entry below.
conditions-used: buffer; pH 7.4; 200.0 µM

Would you please look over these solved cases?
c1ccc(-c2cc(N3CCCCC3)c3ccccc3n2)cc1    < 0.3 µg/mL
COc1ccccc1N1CCN(C(=O)c2cc(C)on2)CC1    > 45.2 µg/mL
COc1ccc(NC(=O)CC2CCCC2)cc1OC    > 39.5 µg/mL
CC1(C)CC(=O)C=C(NCc2cccc(C(F)(F)F)c2)C1    > 44.6 µg/mL

Each of the following entries comes with a recorded value; kindly state solubility kinetic for each.
1. Cc1ccc2cc(C)c(N3CCN(c4ccc(F)cc4)CC3)nc2c1
2. O=C(Nc1cccs1)N1CCN(c2ncccn2)CC1
3. Nc1ncncc1-c1ccc(Cl)cc1
4. Brc1ccc(CNc2ccc3ncccc3c2)cc1
5. O=C(CN1C(=O)NC2(CCOc3ccccc32)C1=O)NCCc1ccccc1 (stereo unspecified)
6. Cc1nc2oc3ccc(Cl)cc3c(=O)c2cc1C(=O)O
7. CCOc1ccc(-c2c(C)n([O-])c3c([n+]2=O)CCCCC3)cc1

Response:
1: < 0.2 µg/mL; 2: > 43.4 µg/mL; 3: > 30.8 µg/mL; 4: < 0.3 µg/mL; 5: > 56.9 µg/mL; 6: > 43.5 µg/mL; 7: > 47.2 µg/mL

---

Field: solubility kinetic. Provide a value for each of the compounds that follow.
conditions-used: buffer; pH 7.4; 200.0 µM
Numbers only, in µg/mL.

Examples with answers:
Cc1ccc(-c2nc3ccccc3[nH]2)cn1    29.5
CCOc1ccc2nc(SCC3CC3(Cl)Cl)[nH]c2c1 (centres undefined)    29.4
O=C(CSc1ncccc1C(=O)O)NC1CCCCC1    39.8

Okay, here is my list. What is solubility kinetic for each of these?
1. CC1Sc2ccc(C(=O)NCc3ccccc3Cl)cc2NC1=O (centres undefined)
2. CC1CCCC(NC(=O)COC(=O)c2cccs2)C1C (centres undefined)
3. COc1ccc(CNC(=O)C(C)OC(=O)c2cccs2)cc1 (centres undefined)

Response:
1: 4.1; 2: 43.1; 3: 26.9

Provide the reported solubility kinetic of each entry below, same order.
1. Cc1cccc(N2C(=O)CC(n3ccnc3)C2=O)c1C (centres undefined)
2. O=Cc1sc(N2CCOCC2)nc1-c1ccccc1
3. Cn1cc(C(=O)C(=O)N2CCc3ccccc32)c2ccccc21
4. Cc1nccc(-c2ccc(-n3c(C)ccc3C)cc2)n1
5. COc1ccc(NC(=O)C2CC(c3c(F)cccc3Cl)=NO2)cc1 (centres undefined)
6. CC1CC(C)(C)CC2(C1)NC(=O)N(CC(=O)N1CCN(S(=O)(=O)c3cccc(F)c3)CC1)C2=O (centres undefined)
7. O=C(CN1CCc2ccccc2C1)Nc1ccc(F)cc1
8. Cc1ccc2nc3c(nc2c1C)C(O)=C3O

Response:
1: 32.9; 2: 4.5; 3: 0.8; 4: 33; 5: 40.8; 6: 4.9; 7: 39.2; 8: 24.7

The following compounds each have a reported value; give each one's solubility kinetic.
1. N#C/C(=C(/O)c1ccc(Cl)c([N+](=O)[O-])c1)c1nc2ccccc2[nH]1
2. Cc1ncc(CN2CCC(CO)(Cc3ccccc3)CC2)s1

Response:
1. 0.6
2. 45.5

Provide each entry's solubility kinetic from the list below.
1. COc1cc([N+](=O)[O-])ccc1NC(=O)NCc1ccco1
2. CCc1sc(C(=O)Nc2cccnc2)cc1Br
3. O=C(COc1ccc([N+](=O)[O-])cc1)NCCc1nc2ccccc2[nH]1

Response:
1: 13.8; 2: 3.9; 3: 8.5

---

conditions-used: buffer; pH 7.4; 200.0 µM
measured-property: solubility kinetic (µg/mL)
Give bare numbers, in µg/mL.

N#Cc1ccccc1NC(=O)COC(=O)c1ccc(F)cc1F    11.1

Now look at this one.
Prompt: Record request: solubility kinetic value, item CCOC(=O)c1ccoc1CN1CCN(S(=O)(=O)c2ccc(C)c(C)c2)CC1
Response: 32.8

---

conditions-used: buffer; pH 7.4; 200.0 µM
Assign solubility kinetic to each entry below.
Numbers only, in µg/mL.

Some solved cases for reference:
CNC(=S)NC1CC2CCCC(C1)N2Cc1ccc(C)cc1 (stereo not given)    45.9
Cc1cc(SCc2cccc(Cl)c2)nc(=O)[nH]1    39.9
CCCc1cc(=O)oc2c(CN3CCN(C)CC3)c(O)ccc12    45.2
O=C(NC1CCN(Cc2ccc3ccccc3c2)CC1)c1ccccc1    2.8
O=C(CN1C(=O)NC2(CCCC2)C1=O)OCc1ccccc1    21.8
COc1ccc(NS(=O)(=O)c2cc(N)ccc2N2CCCC2)cc1    47.6
CCSc1nc2sc3c(c2c(=O)n1CC)CCC3    2.2
Nc1cc(=O)[nH]c(SCc2cccc3ccccc23)n1    4

// next item, solubility kinetic requested
Prompt: Please report the recorded solubility kinetic for COc1ccc(CCC(=O)N2CCN(c3ccc(OC)cc3)CC2)cc1 .
Response: 41

---

conditions-used: buffer; pH 7.4; 200.0 µM
measured-property: solubility kinetic

Worked cases, answers included:
O=C(NCc1ccco1)C1CC(O)CN1C(=O)Nc1ccccc1 (stereo unspecified)    > 49.4 µg/mL
O=C(COC(=O)Cc1ccc(F)cc1)NC1CCCCC1    > 44 µg/mL

Give measured solubility kinetic for every item shown.
1. CCOC(=O)C1CCN(CCC(=O)Nc2ccc(C)cc2)CC1
2. CN(C(=O)CCc1nc2ccccc2c(=O)[nH]1)C1CCS(=O)(=O)C1 (stereo unspecified)
3. COc1ccc(C2(C)NC(=O)NC2=O)cc1OC (stereo unspecified)

Response:
1. > 47.8 µg/mL
2. > 52.4 µg/mL
3. > 37.5 µg/mL

---

conditions-used: buffer; pH 7.4; 200.0 µM
Kindly state log10 solubility kinetic for each of the entries shown.
# values: log10(solubility kinetic), units µg/mL

CCCCCC(=O)NC(=S)NC1C2CC3CC(C2)CC1C3 (stereo not given)    1.45
COc1ccc2oc(C(=O)Nc3ccccn3)c(C)c2c1    1.34
O=C(/C=C/c1cccc(F)c1)NCc1ccc2c(c1)OCO2    0.52
Cc1c(C=O)c2ccccc2n1CCOc1ccccc1    0.79
NC(=O)CN1CCN(c2cccc(Cl)c2)CC1    1.53

Respectfully, I request log10 solubility kinetic for each entry included below.
1. O=C(Nc1ccc(Cl)c(Cl)c1)N1CCCCCC1
2. N#C/C(=C\c1ccccc1)c1ccccn1

Response:
1. -0.05
2. 0.93

Below are some compounds; for each one, tell me its log10 solubility kinetic.
1. O=C(CCl)NCc1cc(-c2ccc(Cl)cc2)no1
2. Cc1ccc(C2CC2/C(=N/O)c2ccc(F)cc2)cc1 (stereo not given)
3. O=C(/C=C/c1ccccc1)NC(=O)c1ccccc1O
4. Cc1cc(C(=O)Nc2cc(C(C)(C)C)on2)c(C)o1
5. Cc1cc(NC(=O)COc2ccc3ccccc3c2)no1
6. O=C(Nc1cccc(Cl)c1)c1cnccn1

Response:
1. 1.12
2. 0.49
3. 0.15
4. 0.58
5. -0.22
6. 1.42

Batch request: log10 solubility kinetic per item, same order as input.
1. O=C(NCCc1ccc(F)cc1)C1CCCO1 (stereo not given)
2. COc1ccccc1NC(=O)c1ccc(C(=O)c2ccccc2)o1
3. COc1ccc(CNCc2ccc(C)cc2)c(OC)c1.O=C(O)C(=O)O
4. O=S(=O)(Nc1ccccc1Cl)c1ccc(-c2ccccn2)s1

Response:
1. 1.44
2. 0.94
3. 1.61
4. 1.55
